Please provide measured IC50 for the entries that follow.
- Test system: pERK in NCI-H358 cells
- protocolDetails: Cell-based pERK HTRF assay (pERK inhibition in H358 cells)
- testParameters: Homo sapiens, NCI-H358, 0.5 h, 30 min incubation

Which measured IC50 value corresponds to C=CC(=O)N1CC[C@@H](N(CC)c2nc(OC[C@@H]3C[C@@H](OC)CN3C)nc3c(F)c(-c4ccc(F)c5sc(N)c(C#N)c45)c(C(F)(F)F)cc23)[C@H]1C [Compound 45] ?
< 100 nM

Which measured IC50 value corresponds to C=CC(=O)N1CC[C@@H](N(CC)c2nc(OC[C@]34CCCN3C[C@H](F)C4)nc3cc(-c4ccc(F)c5sc(N)c(C#N)c45)c(F)cc23)[C@H]1C [Compound 167] ?
< 100 nM

Which measured IC50 value corresponds to C=CC(=O)N1CC2CC(C1)N2c1nc(OC[C@@]23CCCN2C[C@H](F)C3)nc2c(F)c(-c3ccc(F)c4sc(N)c(C#N)c34)c(C(F)(F)F)cc12 [Compound 46] ?
100 to 1000 nM

Which measured IC50 value corresponds to C=CC(=O)N1C[C@H](N(C)c2nc(OC[C@@H]3CCCN3C)nc3c(F)c(-c4ccc(F)c5sc(N)c(C#N)c45)c(C(F)(F)F)cc23)C[C@@H]1C [Compound 153] ?
< 100 nM

Which measured IC50 value corresponds to C=CC(=O)N1C[C@H]2CC[C@@H]1CN2c1nc(OC[C@@]23CCCN2C[C@H](F)C3)nc2c(F)c(-c3ccc(F)c4sc(N)c(C#N)c34)c(C(F)(F)F)cc12 [Compound 36] ?
100 to 1000 nM
